# assaySystem: RBPMS-A FL (rat)
# assayRemarks: EMSA
# measurementConditions: no binding in 0-6 uM; EMSA: 10 nM RNA, 25 mM HEPES pH 7.9, 100 mM KCl, 2 mM MgCl2, 0.625 mM DTT, 0.1 mg/ml BSA, 5% glycerol, 30 C 1 h, then 5 mg/ml heparin 10 min; 5% native PAGE in …
property: Kd

Request: Specify Kd for GUCUACGCACCCUCAACCCGCACCUUGCGGGAUG [(CAC)2] and stop.
Response: > 6 µM
